Data origin, for the record: PubChem BioAssay (NCI)

- Test system: SK-OV-3 ovarian
- Assay remarks: NCI tumour cell line growth inhibition, 48 h
Measured GI50, listed per entry for reference.
Outcome measure: GI50

structure_smiles=C1CC[N-]CC1.CC(=N\O)/C(C)=N/O.CC(=N\O)/C(C)=N/O.[CH2-]CCN1CCOCC1.[Co+2] value_measured="> 100 µM"
structure_smiles=CCCCCCNC(=O)Oc1ccc(/C(=C(\C)c2ccccc2)c2ccc(OCCN(CC)CC)cc2)cc1 value_measured="8.33 µM"
structure_smiles=Cn1ccnc1C[N-]Cc1nccn1C.O=[N+]([O-])[O-].O=[N+]([O-])[O-].[Cu+2] value_measured="> 100 µM"
structure_smiles=CC(=O)N1CCN(CCOc2ccc(C3CCN(C4=Nn5c(nnc5C(F)(F)F)CC4)CC3)cc2)CC1 value_measured="21.1 µM"
structure_smiles=CCOC(=O)/C(C#N)=C/Nc1ccc(-c2nc3ccccc3[nH]2)cc1 value_measured="25.6 µM"
structure_smiles=CCCCOc1ccc(/C=N/Nc2cc(C)nc3ccc(Cl)cc23)cc1 value_measured="1.8 µM"
structure_smiles=COc1ccc(NC(=O)/C=C(C)/C=C/C=C(C)\C=C\C2=C(C)CCCC2(C)C)cc1 value_measured="> 100 µM"
structure_smiles=O=C(NCCCCOCC#Cc1ccccc1C#CCS(=O)(=O)c1ccccc1)c1cc2ccccc2[nH]1 value_measured="19.5 µM"
structure_smiles=O=C1c2ccn(CCCCN3CCC(O)CC3)c2C(=O)c2c1c(O)c1ccccc1c2O value_measured="41.3 µM"

###

Measured GI50, listed per entry for reference.
- Test system: KM12 colon
- Assay remarks: NCI tumour cell line growth inhibition, 48 h
Outcome measure: GI50

compound=O=S(=O)(O)ONC1=NCCN1 outcome_measure=GI50 value_measured="> 100000 nM"
compound="CO[C@H](C(=O)O)[C@@H]1Cc2cc3cc(OC4CC(OC5CC(O)C(O)C(C)O5)C(O)C(C)O4)c(C)c(O)c3c(O)c2C(=O)[C@H]1OC1CC(OC2CC(OC3CC(C)(O)C(O)C(C)O3)C(O)C(C)O2)C(O)C(C)O1 (some centres undefined)" outcome_measure=GI50 value_measured="233 nM"
compound=Cc1sc2ncn(Cc3ccc(Cl)c(Cl)c3)c(=O)c2c1C outcome_measure=GI50 value_measured="2440 nM"
compound="CC(=O)C1(O)Cc2c(O)c3c(c(O)c2C(OC2CC(N)C(O)C(C)O2)C1)C(=O)c1ccccc1C3=O (centres undefined)" outcome_measure=GI50 value_measured="16.7 nM"

###

- Test system: KM12 colon
- Assay remarks: NCI tumour cell line growth inhibition, 48 h
Measured GI50, listed per entry for reference.
Outcome measure: GI50

compound=COc1ccc(/C=N/N=C(\[O-])c2ccncc2)cc1F.COc1ccc(/C=N\N=C(/[O-])c2ccncc2)cc1F.[Cu+2] outcome_measure=GI50 value_measured="16.2 µM"
compound=CC[C@H](NC(=O)[C@H](CS(=O)(=O)CC1CC1)N[C@@H](c1ccc(F)cc1)C(F)(F)F)C(=O)C(=O)NC1CC1 outcome_measure=GI50 value_measured="> 100 µM"
compound=CCOc1cc(C(C)(C)C)ccc1C1=N[C@@](C)(c2ccc(Cl)cc2)[C@@](C)(c2ccc(Cl)cc2)N1C(=O)N1CCN(CCS(C)(=O)=O)CC1 outcome_measure=GI50 value_measured="3.33 µM"
compound=O=C1c2ccn(CCCCN3CCC(O)CC3)c2C(=O)c2c1c(O)c1ccccc1c2O outcome_measure=GI50 value_measured="1.96 µM"
compound=O=c1c2c3c(sc2n2c(-c4ccc(Br)cc4)nnc2n1Cc1ccccc1)CCCC3 outcome_measure=GI50 value_measured="10.2 µM"
compound=CCOC(=O)/C(C#N)=C/Nc1ccc(-c2nc3ccccc3[nH]2)cc1 outcome_measure=GI50 value_measured="16.1 µM"
compound=Cn1ncc(-c2ccc3c(=O)[nH]nc(CN)c3c2)c1-c1c(F)cc2ccccc2c1C#N outcome_measure=GI50 value_measured="5 µM"
compound=COc1ccc2[nH]c(O)c(/C=c3/cc4c(c(-c5ccc(F)cc5)n3)=Nc3ccccc3-4)c2c1 outcome_measure=GI50 value_measured="1.78 µM"
compound="COc1c(N2CCN(Cn3c(O)c(N=NC(=O)c4ccncc4)c4cc(F)ccc43)C(C)C2)c(F)cc2c(=O)c(C(=O)O)cn(C3CC3)c12 (stereo not given)" outcome_measure=GI50 value_measured="> 50 µM"
compound="O=[As]c1ccc(C(=O)c2ccc(Oc3ccccc3)cc2)cc1 (stereo not given)" outcome_measure=GI50 value_measured="0.0532 µM"
